- System: honeybees
- EXPERIMENT_SUMMARY: Acute contact toxicity to honeybees, active ingredients in acetone (Test Example 4)
- Format: in vivo
- CONDITIONS: treatment dose 200 μg per honeybee in acetone; 72 hours after treatment
MEASUREMENT_KIND: Lethality (%)
Give the number; % is assumed, so skip it.

Please indicate recorded Lethality (%) of CCCCCC(=O)O [1-hexanoic acid, reference compound] measured with honeybees.
30.0

State Lethality (%) (honeybees) of CCCCCCCCCCO .
100

Report Lethality (%) under test system honeybees for CCCCCCCCO .
50

Provide Lethality (%), system honeybees, entry CCCCCCCCCC(=O)O [1-decanoic acid, reference compound]
90

Please report the measured Lethality (%) for CCCCCCCC(=O)O [1-octanoic acid, reference compound] tested on honeybees.
60

Would you please give the reported Lethality (%) of CCCCCCCC/C=C\CCCCCCCCO with honeybees?
20

Print honeybees Lethality (%) for CCCCCCO .
6.7

Attribution: patent US11771083B2
